Entry source: patent US20230183193A1

# System: Matricaria inodora
# protocol.summary: Pre-emergence herbicidal action, MATIN
# Assay type: in vivo
# condition.info: dosage 20 g/ha, Table K
measurement.name: Herbicidal efficacy against MATIN
# respond with the number and nothing more

Field: example entries. Status: answers known.
Cn1nnnc1NC(=O)c1ccc(C(F)F)c(S(C)(=O)=O)c1Cl | 90
Cc1c(C(=O)Nc2nnnn2C)ccc(C(F)F)c1S(C)(=O)=O | 80
CSc1c(C(F)F)ccc(C(=O)Nc2nnnn2C)c1C | 70

Input line: Field request: Herbicidal efficacy against MATIN | item: Cc1c(C(=O)Nc2nnnn2C)ccc(C(F)F)c1[S+](C)[O-] (stereo not drawn)
Output line: 70

Input line: Field request: Herbicidal efficacy against MATIN | item: `CSc1c(C(F)F)ccc(C(=O)Nc2nnnn2C)c1Cl`
Output line: 80

Input line: Field request: Herbicidal efficacy against MATIN | item: Cn1nnnc1NC(=O)c1ccc(C(F)F)c([S+](C)[O-])c1Cl (stereo not drawn)
Output line: 90

---

# System: Alopecurus myosuroides
# protocol.summary: Pre-emergence herbicidal action, ALOMY
# Assay type: in vivo
# condition.info: dosage 320 g/ha, scored visually after 3 weeks vs untreated controls
// values below are reported herbicidal activity ALOMY
API: value field is a number in %; no unit string.

Field: example entries. Status: answers known.
CSc1c(C(F)F)ccc(C(=O)Nc2nnnn2C)c1Br | 100
CCc1c(C(=O)Nc2nnnn2CC)ccc(C(F)F)c1S(C)(=O)=O | 100
CSc1c(C(F)F)ccc(C(=O)Nc2ncnn2C)c1Br | 100
CCn1nnnc1NC(=O)c1ccc(C(F)F)c(S(=O)(=O)CC)c1I | 100

Input line: Field request: herbicidal activity ALOMY | item: CCn1nnnc1NC(=O)c1ccc(C(F)F)c([S+](C)[O-])c1Cl (stereo not drawn)
Output line: 100

Input line: Field request: herbicidal activity ALOMY | item: CCc1c(C(=O)Nc2nnnn2C)ccc(C(F)F)c1[S+]([O-])CC (stereo not drawn)
Output line: 100

Input line: Field request: herbicidal activity ALOMY | item: CCn1nnnc1NC(=O)c1ccc(C(F)F)c([S+](C)[O-])c1Br (stereo not drawn)
Output line: 100

Input line: Field request: herbicidal activity ALOMY | item: `CCS(=O)(=O)c1c(C(F)F)ccc(C(=O)Nc2nnnn2C)c1F`
Output line: 100

Input line: Field request: herbicidal activity ALOMY | item: Cn1nnnc1NC(=O)c1ccc(C(F)F)c([S+](C)[O-])c1C1CC1 (stereo not drawn)
Output line: 100

---

# Test system: Amaranthus retroflexus
# protocol.summary: Post-emergence herbicidal action, AMARE
# Type: in vivo
# condition.info: 80 g/ha, Table D
# Description: Seeds of monocotyledonous and dicotyledonous weed and crop plants are laid out in sandy loam soil in wood-fiber pots, covered with soil and cultivated in a greenhouse under good growth conditions. 2 to 3 weeks after sowing, the test plants are treated at the one-leaf stage. […]
// values below are reported herbicidal activity AMARE
API: value field is a number in %; no unit string.

Field: example entries. Status: answers known.
CCc1c(C(=O)Nc2nnc(C)o2)ccc(C(F)F)c1S(C)(=O)=O | 100
CC[S+]([O-])c1c(C(F)F)ccc(C(=O)Nc2ncnn2C)c1Cl (centres unmarked) | 100
CCn1nnnc1NC(=O)c1ccc(C(F)F)c(SC)c1Br | 90
CCn1nnnc1NC(=O)c1ccc(C(F)F)c([S+](C)[O-])c1C (centres unmarked) | 80
CCn1nnnc1NC(=O)c1ccc(C(F)F)c([S+](C)[O-])c1C1CC1 (centres unmarked) | 100

Input line: Reported herbicidal activity AMARE for Amaranthus retroflexus, given Cc1c(C(=O)Nc2ncnn2C)ccc(C(F)F)c1[S+](C)[O-] (centres unmarked) ?
Output line: 100

Input line: Reported herbicidal activity AMARE for Amaranthus retroflexus, given `CCc1c(C(=O)Nc2nnnn2C)ccc(C(F)F)c1S(=O)(=O)CC` ?
Output line: 100
